molecular target: DP4 (HLA-DPA1*01:03/DPB1*04:01), DP4.1 (Homo sapiens, UniProt P04440+P20036); assay: Fluorescence polarization competition binding assay, DP4.1; conditions: FP competition; Alexa488 oxytocinase probe 25 nM; DP4.1-Clip 250 nM; HLA-DM 500 nM; 37 °C, 24 h
Examples of sequences with documented IC50 follow.

The following sequences have reported results that may help.
ordered-residues: APYGLYFIHFSYVPTK [Peptide P6, OC43 spike 1140–1155, naturally processed peptide eluted from HLA-DP]
observed-measurement: ≥ 10 µM
--
ordered-residues: GAFFFGSRLELAKVQN [Peptide P2, OC43 nucleoprotein 321–336, naturally processed peptide eluted from HLA-DP]
observed-measurement: ≥ 10 µM
--
ordered-residues: YLAISNELLLTVPTK [Peptide P1, OC43 hemagglutinin esterase 259–273, naturally processed peptide eluted from HLA-DP]
observed-measurement: < 1 µM

Next:
IN: API: value(readout= IC50, system= DP4 (HLA-DPA1*01:03/DPB1*04:01), DP4.1 (Homo sapiens, UniProt P04440+P20036), query= ITTGYRFTNFEPFT [Peptide P5, OC43 spike 760–773, naturally processed peptide eluted from HLA-DP] )
OUT: < 1 µM

The values you see were collected from paper doi:10.1101/2022.12.01.518643.
